Test system: Endothelial Cells (HUVEC)
Test: Proliferation assay (vitronectin-coated plates, Alamar Blue)
Type: cell-based
Conditions: 72 hours, concentration held constant in combination with chemotherapeutic agents, read-out: constant EC50 concentration of alpha V integrin blocker
resultType: pEC50
Numbers only, as −log10 of the molar value.

// query pEC50 value for entry CC(C)[C@H]1C(=O)N[C@@H](CCCN=C(N)N)C(=O)NCC(=O)N[C@@H](CC(=O)O)C(=O)N[C@H](Cc2ccccc2)C(=O)N1C [Cilengitide, cyclo-(Arg-Gly-Asp-DPhe-NMeVal)]
9.70
